The reported numbers originate from paper PMC9271048.

- System: PaKAI2s (5 KAI2 protein homologs in P. aegyptiaca)
- Experiment description: YLG-based competition assay on KAI2 protein homologs of P. aegyptiaca
- Format: biochemical, Phelipanche aegyptiaca
- Condition parameters: KAI2d1; average of 3 replicates; Supplementary Fig. 27; read-out: IC50, average
pIC50: −log10 of the molar value.
Could you label it 1 if measured pIC50 is 5 or higher, and -1 otherwise?

>>> class_assignment("CC1=CC(CC(=O)N2CCN(C(=O)COc3ccc(Br)cc3C)CC2)OC1=O (stereo not shown) [4i]")
-1
>>> class_assignment("CC1=C[C@H](O/C=C2/C(=O)O[C@@H]3c4ccccc4C[C@H]23)OC1=O (racemic) [rac-GR24, reference compound]")
1

**Query** Does pIC50 meet or surpass 5 for CC1=C[C@@H](OC(=O)N2CCN(C(=O)COc3ccc(Br)cc3C)CC2)OC1=O [(R)-4a] ?
**Result** -1

**Query** Check this compound for pIC50 at or above 5: CC1=CC(OC(=O)N2CCN(C(=O)COc3ccc(Br)cc3C)CC2)OC1=O (stereo not shown) [4a]
**Result** -1

**Query** Is reported pIC50 greater than or equal to 5 here: CC1=CC(OC(=O)N2CCN(C(=O)COc3ccc(Br)cc3C)CC2)N(C)C1=O (stereo not shown) [4h]
**Result** -1

**Query** Answer whether pIC50 of CC1=CC(OC(=O)N2CCN(C(=O)COc3ccc(Br)cc3C)CC2)CC1=O (stereo not shown) [4g] is greater than or equal to 5.
**Result** -1

---

Hi there, I'd appreciate the recorded pIC50 for every entry that follows.
- Measurement target: ShHTL7 L161A (Striga hermonthica, UniProt A0A0M3PNA2, L161A)
- Sequence (A0A0M3PNA2 whole entry L161A): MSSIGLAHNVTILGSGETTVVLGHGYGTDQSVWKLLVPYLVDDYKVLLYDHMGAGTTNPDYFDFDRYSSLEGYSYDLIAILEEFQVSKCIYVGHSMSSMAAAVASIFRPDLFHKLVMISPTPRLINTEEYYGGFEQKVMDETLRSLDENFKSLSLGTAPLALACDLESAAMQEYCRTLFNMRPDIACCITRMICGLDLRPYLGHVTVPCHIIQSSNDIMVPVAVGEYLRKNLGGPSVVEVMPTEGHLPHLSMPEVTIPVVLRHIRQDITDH
- Experiment description: YLG competitive inhibition, ShHTL7 mutant L161A
Give bare numbers, as −log10 of the molar value.

>>> reported_measurement("CC1=C[C@H](OC(=O)N2CCN(C(=O)COc3ccc(Br)cc3C)CC2)OC1=O [(S)-4a]")
6.81

Next, consider the following compound.
get_value(item= CC1=C[C@@H](OC(=O)N2CCN(C(=O)COc3ccc(Br)cc3C)CC2)OC1=O [(R)-4a] , readout=pIC50) returns 4.00

---

- Measurement target: ShHTL7 (Striga hermonthica, UniProt A0A0M3PNA2)
- Sequence (A0A0M3PNA2 entry or part of it): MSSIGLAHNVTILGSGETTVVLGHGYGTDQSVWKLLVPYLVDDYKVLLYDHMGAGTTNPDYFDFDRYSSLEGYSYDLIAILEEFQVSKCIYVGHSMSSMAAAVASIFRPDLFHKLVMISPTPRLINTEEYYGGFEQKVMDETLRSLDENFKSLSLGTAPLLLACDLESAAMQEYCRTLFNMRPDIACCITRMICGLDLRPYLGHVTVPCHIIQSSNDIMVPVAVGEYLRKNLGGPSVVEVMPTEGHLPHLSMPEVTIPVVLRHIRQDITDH
- Experiment description: biochemical
- Type: binding
Please go through the items and note down their Kd.
Form field: result (number plus unit)

Answered examples (6):
>>> reported_measurement("CC1=CC(OC(=O)N2CCN(C(=O)COc3ccc(Br)cc3C)CC2)CC1=O (stereo not shown)")
"34.8 µM"
>>> reported_measurement("O=C(c1ccc(F)cc1)N1CCN(CC2CC=CCC2)CC1 (stereo not shown)")
"13.3 µM"
>>> reported_measurement("O=C(C(c1ccccc1)c1ccccc1)N1CCN(CC2CC3C=CC2C3)CC1 (stereo not shown)")
"5.22 µM"
>>> reported_measurement("Cc1cc(Br)ccc1OCC(=O)N1CCN(CC2CC3C=CC2C3)CC1 (stereo not shown)")
"0.18 µM"
>>> reported_measurement("O=C(COc1ccc(Cl)cc1)N1CCN(CC2CC=CCC2)CC1 (stereo not shown)")
"1.02 µM"
>>> reported_measurement("COc1cc(C(=O)N2CCN(CC3CC4C=CC3C4)CC2)cc(OC)c1OC (stereo not shown)")
"6.66 µM"

Dear colleague, could you please provide Kd for the compounds listed below?
1. CC1=CC(OC(=O)N2CCN(C(=O)COc3ccc(Br)cc3C)CC2)OC1=O (stereo not shown)
2. O=C(c1ccc([N+](=O)[O-])cc1)N1CCN(CC2CC3C=CC2C3)CC1 (stereo not shown)
3. CC1=CC(OC(=O)N2CCN(C(=O)COc3c(F)c(F)c(F)c(F)c3F)CC2)OC1=O (stereo not shown)
4. Cc1cccc(OCC(=O)N2CCN(CC3CC4C=CC3C4)CC2)c1 (stereo not shown)

**Result**
1. 2.07 µM
2. 8.77 µM
3. 2.21 µM
4. 11.2 µM
